Cited source for all entries: paper PMC8915595

Molecular target: human serum albumin (HSA) (Homo sapiens, UniProt P02768)
Sequence (P02768 25-609): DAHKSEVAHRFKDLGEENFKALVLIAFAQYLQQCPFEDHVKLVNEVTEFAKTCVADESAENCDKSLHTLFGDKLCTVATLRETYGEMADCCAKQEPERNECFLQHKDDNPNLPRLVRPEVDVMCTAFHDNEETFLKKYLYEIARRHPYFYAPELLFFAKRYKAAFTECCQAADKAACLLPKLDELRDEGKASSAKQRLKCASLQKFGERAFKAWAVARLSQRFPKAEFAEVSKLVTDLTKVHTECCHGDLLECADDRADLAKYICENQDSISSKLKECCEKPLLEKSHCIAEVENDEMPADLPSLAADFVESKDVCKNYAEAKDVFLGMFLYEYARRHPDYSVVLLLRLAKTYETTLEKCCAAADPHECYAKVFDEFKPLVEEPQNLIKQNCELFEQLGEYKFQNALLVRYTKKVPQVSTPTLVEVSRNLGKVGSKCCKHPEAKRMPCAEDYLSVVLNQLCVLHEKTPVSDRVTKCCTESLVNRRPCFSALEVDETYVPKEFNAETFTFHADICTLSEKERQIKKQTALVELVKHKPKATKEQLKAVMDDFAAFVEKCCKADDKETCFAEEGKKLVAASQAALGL
Experiment: Protein binding on chemically bonded HSA column (Chiralpak-HSA)
Details: remeasured in this study, pH 7.4
Lab note - cut at 4 for log K HSA: Yes if strictly below, No if not.

# input Regarding "Nc1ccc(S(=O)(=O)Nc2ccc(Cl)nn2)cc1" , kindly confirm whether its log K HSA is beneath 4.
# output Yes

# input What do you get for CC(C)(C)NCC(O)COc1cccc2c1CC(O)C(O)C2 (stereo not drawn) ?
# output Yes

# input What do you get for "COc1cc(Cc2cnc(N)nc2N)cc(OC)c1OC" ?
# output Yes

# input What do you get for CC(C(=O)O)c1cccc(Oc2ccccc2)c1 (stereo not drawn) ?
# output Yes

# input What do you get for "CC/C(=C(\c1ccccc1)c1ccc(OCCN(C)C)cc1)c1ccccc1" ?
# output No
